Source listed as the RNAGym collection of RNA variant scans (doi:10.1093/molbev/msab373).

B1: Azoarcus group I ribozyme (parent)
chain: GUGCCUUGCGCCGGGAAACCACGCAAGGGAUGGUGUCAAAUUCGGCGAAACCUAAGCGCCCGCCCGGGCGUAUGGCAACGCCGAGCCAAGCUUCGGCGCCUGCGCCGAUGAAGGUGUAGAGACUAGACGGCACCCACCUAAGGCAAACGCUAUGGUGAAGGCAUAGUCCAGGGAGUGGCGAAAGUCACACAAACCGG

Variants of: B1
Assay: reverse-splicing fitness (ratio to wild type); higher = more active; in vitro selection; Mg2+ level not given
Quick reference for reverse-splicing fitness among some variants
Endpoint label: reverse-splicing fitness

# Variant id, Assay value
data = [
    ("A111C A120G A145C C169A", 0.0989),
    ("C82U A111C A120G C150A U176A", 0.0152),
    ("C82A A120G A145U C150G C169U U176G", 0.00511),
    ("A120G A145U C169A U176A", 0.113),
    ("C82A A111G A120C C150G C169U", 0.00991),
    ("C82U A145U C169G", 0.00906),
    ("C82U A111G A145U", 0.462),
    ("A120C C150A C169U U176A", 0.0533),
    ("A111G A120C A145G C150A C169G U176G", 0.00551),
    ("C82A A111C A145C C150A C169A", 0.00835),
    ("A111G C169U U176A", 0.0489),
    ("C82G A111G A120U A145C C150A C169U U176G", 0.0019),
    ("C82G A111U A120G A145U C150G C169G U176G", 0.00425),
    ("C82G A111C A120C A145U C150U C169A U176G", 0.00748),
    ("A145U", 0.946),
    ("C82G A120C A145C C150G U176A", 0.00907),
    ("C82U A111C A120G A145U C150A C169U U176C", 0.0106),
    ("C82A A111U A120G A145G C150G C169U U176A", 0.0121),
    ("C82U A111U A120G A145C C150A U176A", 0.00746),
    ("A111C A120U A145C C150G C169U U176A", 0.00402),
    ("C82A A111U A145G C150G C169G U176A", 0.0117),
    ("A111U A120C C150A C169U U176G", 0.00713),
]
